# target_system: Tyrosine-protein kinase Lyn (Homo sapiens) (UniProt P07948);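 further: mean percent inhibition of the LYN A splice variant of the kinase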
# Sequence (P07948 2-512 limits assumed): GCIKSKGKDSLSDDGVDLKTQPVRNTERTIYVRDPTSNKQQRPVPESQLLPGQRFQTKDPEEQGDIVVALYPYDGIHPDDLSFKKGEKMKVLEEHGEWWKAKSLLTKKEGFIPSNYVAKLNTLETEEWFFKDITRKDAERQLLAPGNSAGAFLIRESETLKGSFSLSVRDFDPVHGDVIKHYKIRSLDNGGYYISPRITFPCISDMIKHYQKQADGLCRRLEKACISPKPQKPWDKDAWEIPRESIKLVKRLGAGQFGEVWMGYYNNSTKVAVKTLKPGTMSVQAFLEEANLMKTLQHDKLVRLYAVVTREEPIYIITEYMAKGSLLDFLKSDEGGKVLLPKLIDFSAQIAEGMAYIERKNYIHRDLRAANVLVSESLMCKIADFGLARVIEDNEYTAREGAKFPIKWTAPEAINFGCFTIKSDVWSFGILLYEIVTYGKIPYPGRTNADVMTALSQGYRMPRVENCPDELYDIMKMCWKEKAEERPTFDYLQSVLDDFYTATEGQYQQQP
# condition: at 1 µM
# Description: GSK_PKIS: LYN A (splice variant) mean inhibition at 1 uM [Nanosyn]
Provide the recorded inhibition for the entries that follow.
Reply with just the number (in %).

inhibition for CN(c1ccc(NC(=O)NCCN2CCOCC2)cc1)c1ccnc(Nc2ccc(CS(C)(=O)=O)cc2)n1 is 14.9

Just so you know, measured inhibition for COc1ccc(-c2nn3ncccc3c2-c2ccnc(Nc3ccc(F)c(F)c3)n2)cc1 came out at 21.3

According to the records, this compound Cc1cc(O)cc(C)c1/C=C/c1cncc(C(N)=O)c1 displays inhibition of 61

The measured inhibition associated with O=C(Nc1n[nH]c2nnc(-c3cccnc3)cc12)C1CC1 reads 1.49

Value of measured inhibition for the entry CS(=O)(=O)Nc1ccc(-c2ccc3c(NC(=O)C4CC4)n[nH]c3c2)cc1 : 4.62

Form: compound = O=C(O[C@H]1CN[C@H](C#Cc2cc3ncnc(Nc4ccc(OCc5cccc(F)c5)c(Cl)c4)c3s2)C1)N1CCOCC1 ; inhibition = 6.48

For record CCN1CCC(C(=O)Nc2n[nH]c3nnc(-c4cccc(F)c4F)cc23)CC1 the listed inhibition is -1.05

inhibition recorded for this compound, CC1(C)CC(n2cnc(-c3ccc(F)cc3)c2-c2ccnc(N)n2)CC(C)(C)N1 , is 2.44

----------
# target_system: Serine/threonine-protein kinase Chk2 (Homo sapiens)
# condition: at 1 µM
measurement_kind: inhibition (%)
Give the quantity in %, number only.

The compound CS(=O)(=O)CCNCc1ccc(-c2ccc3ncnc(Nc4ccc(OCc5cccc(C(F)(F)F)c5)cc4)c3c2)o1 , when measured on Serine/threonine-protein kinase Chk2 (Homo sapiens), yielded inhibition of 5.4

Measured inhibition (Serine/threonine-protein kinase Chk2 (Homo sapiens)), entry Cc1cc(O)cc(C)c1/C=C/c1cncc(C(N)=O)c1 : 4

Tested system Serine/threonine-protein kinase Chk2 (Homo sapiens); inhibition recorded for Cc1nnc(-c2cccc(-c3ccc(C(=O)NCC4CC4)cc3)c2)o1 was 4.86

----------
# target_system: Proto-oncogene tyrosine-protein kinase ROS (Homo sapiens) (UniProt P08922)
# Sequence (P08922 whole entry): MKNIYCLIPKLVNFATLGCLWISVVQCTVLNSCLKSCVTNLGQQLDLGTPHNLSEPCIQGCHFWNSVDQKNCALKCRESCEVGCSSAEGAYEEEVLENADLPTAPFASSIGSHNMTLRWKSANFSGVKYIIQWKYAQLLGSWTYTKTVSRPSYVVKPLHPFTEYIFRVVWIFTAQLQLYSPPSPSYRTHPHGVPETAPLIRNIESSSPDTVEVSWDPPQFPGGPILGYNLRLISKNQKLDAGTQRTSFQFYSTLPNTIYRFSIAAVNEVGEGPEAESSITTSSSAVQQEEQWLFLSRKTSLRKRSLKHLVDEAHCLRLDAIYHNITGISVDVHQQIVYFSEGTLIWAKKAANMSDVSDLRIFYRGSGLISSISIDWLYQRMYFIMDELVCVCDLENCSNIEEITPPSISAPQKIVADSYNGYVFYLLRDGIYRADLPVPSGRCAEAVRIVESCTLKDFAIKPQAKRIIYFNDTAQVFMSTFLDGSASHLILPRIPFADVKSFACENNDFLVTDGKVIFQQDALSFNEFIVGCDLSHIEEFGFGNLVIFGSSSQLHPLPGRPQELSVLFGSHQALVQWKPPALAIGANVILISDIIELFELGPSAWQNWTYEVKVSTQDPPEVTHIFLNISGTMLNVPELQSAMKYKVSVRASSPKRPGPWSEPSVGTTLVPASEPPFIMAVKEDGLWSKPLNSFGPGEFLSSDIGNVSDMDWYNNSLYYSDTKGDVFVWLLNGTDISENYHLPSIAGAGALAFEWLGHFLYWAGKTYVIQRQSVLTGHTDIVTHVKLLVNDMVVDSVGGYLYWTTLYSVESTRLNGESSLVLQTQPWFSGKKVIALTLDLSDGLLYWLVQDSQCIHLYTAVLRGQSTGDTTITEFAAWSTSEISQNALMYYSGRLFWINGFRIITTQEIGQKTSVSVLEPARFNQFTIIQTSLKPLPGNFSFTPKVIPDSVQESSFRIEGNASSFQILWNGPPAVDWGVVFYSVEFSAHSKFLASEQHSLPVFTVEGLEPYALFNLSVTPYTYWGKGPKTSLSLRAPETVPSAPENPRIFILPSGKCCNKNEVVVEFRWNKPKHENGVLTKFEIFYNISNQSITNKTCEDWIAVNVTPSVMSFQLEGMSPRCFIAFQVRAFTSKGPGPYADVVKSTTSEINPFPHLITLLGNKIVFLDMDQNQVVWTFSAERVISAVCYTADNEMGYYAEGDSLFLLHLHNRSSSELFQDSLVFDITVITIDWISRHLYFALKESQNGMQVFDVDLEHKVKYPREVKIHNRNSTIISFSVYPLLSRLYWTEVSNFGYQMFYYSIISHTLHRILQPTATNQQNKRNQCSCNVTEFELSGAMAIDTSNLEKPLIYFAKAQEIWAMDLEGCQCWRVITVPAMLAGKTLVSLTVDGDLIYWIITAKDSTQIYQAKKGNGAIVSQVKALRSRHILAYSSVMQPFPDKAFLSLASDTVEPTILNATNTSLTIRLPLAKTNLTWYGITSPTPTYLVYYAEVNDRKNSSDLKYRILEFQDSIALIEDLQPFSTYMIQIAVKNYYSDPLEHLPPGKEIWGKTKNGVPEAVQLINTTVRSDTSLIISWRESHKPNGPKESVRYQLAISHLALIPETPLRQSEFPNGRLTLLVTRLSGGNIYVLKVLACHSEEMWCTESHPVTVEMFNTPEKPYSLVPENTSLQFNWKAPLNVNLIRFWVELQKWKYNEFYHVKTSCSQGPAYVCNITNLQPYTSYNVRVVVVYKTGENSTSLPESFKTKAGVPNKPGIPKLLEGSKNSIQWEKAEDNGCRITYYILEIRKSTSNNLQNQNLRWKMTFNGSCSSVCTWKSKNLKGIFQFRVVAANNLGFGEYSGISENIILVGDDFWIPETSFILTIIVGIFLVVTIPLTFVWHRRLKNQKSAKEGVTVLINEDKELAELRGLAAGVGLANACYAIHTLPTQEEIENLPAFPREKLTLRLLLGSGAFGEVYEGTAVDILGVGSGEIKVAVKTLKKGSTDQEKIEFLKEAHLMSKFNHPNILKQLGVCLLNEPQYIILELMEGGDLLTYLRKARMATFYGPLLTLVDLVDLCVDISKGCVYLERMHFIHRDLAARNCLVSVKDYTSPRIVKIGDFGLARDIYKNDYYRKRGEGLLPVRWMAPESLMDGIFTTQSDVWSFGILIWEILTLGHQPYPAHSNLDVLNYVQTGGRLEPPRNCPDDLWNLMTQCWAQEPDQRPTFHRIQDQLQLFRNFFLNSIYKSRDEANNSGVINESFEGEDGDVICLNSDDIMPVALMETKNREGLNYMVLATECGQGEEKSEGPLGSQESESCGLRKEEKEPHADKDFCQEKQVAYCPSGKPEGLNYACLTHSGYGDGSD
# condition: at 0.1 µM
# Description: GSK_PKIS: ROS mean inhibition at 0.1 uM [Nanosyn]
Assign inhibition to each entry below.
Number in %, nothing else.

Record CCCNc1cccc(-n2ncc3c(N/N=C/c4ccncc4)ncnc32)c1 . Reported inhibition: 6.09

Data point: Fc1ccc(Nc2nccc(-c3c(-c4ccc(C(F)(F)F)cc4)nn4ncccc34)n2)cc1F ; inhibition = 6.56

Summary for this molecule, CNC(=O)c1ncccc1Nc1nc(Nc2cc3c(cc2OC)CCCN3C(=O)CN(C)C)nc2[nH]ccc12 : inhibition is 83.4

Sample COC(=O)Nc1nc2cc(Oc3ccc(NC(=O)Nc4ccccc4)cc3)ccc2[nH]1 ; inhibition observed: 2.15

Record summary for O=C(Nc1n[nH]c2nnc(-c3cccnc3)cc12)C1CC1 : reported inhibition = -0.02

The molecule identified as CS(=O)(=O)CCNCc1ccc(-c2ccc3ncnc(Nc4ccc(OCc5ccccc5)cc4)c3c2)o1 registered its inhibition at 1.11

Data point: CCS(=O)(=O)c1ccc(OC)c(Nc2ncc(-c3cccc(F)c3)o2)c1 ; inhibition = 8.05

Note to self: inhibition recorded for CN(c1ccc(NC(=O)NCCN2CCOCC2)cc1)c1ccnc(Nc2ccc(CS(C)(=O)=O)cc2)n1 was 9.47

The reported value for COc1c(C(N)=O)cc(-c2ccc(Cl)cc2)cc1-c1ccc(S(N)(=O)=O)cc1 in terms of inhibition is 12.2

Summary for this molecule, CS(=O)(=O)CCNCc1ccc(-c2ccc3ncnc(Nc4ccc(OCc5cccc(C(F)(F)F)c5)cc4)c3c2)o1 : inhibition is 6.2

According to the records, this molecule FC(F)(F)CNc1nccc(-c2cnn3ncccc23)n1 displays inhibition of -0.19

response.value for NS(=O)(=O)c1cccc(N/C=C2\C(=O)Nc3ccccc32)c1 (field: inhibition) = 5.69

Reported inhibition ( N#Cc1cccc(Nc2ncc(-c3ccccc3)o2)c1 ) = 2.33

// inhibition lookup, molecule = c1ccc(-c2n[nH]cc2-c2ccnc(-c3ccc(OCCn4ccnc4)cc3)c2)nc1 , result: 3.08

Form: molecule = NC(=O)c1ccc2c(-c3ccnc(NCCCO)n3)c(-c3ccc(F)cc3)nn2c1 ; inhibition = 8.51

CS(=O)(=O)Nc1ccc(-c2cc(-c3ccccc3)cc(C(N)=O)c2N)cc1 has a reported inhibition of 4.8

Value of measured inhibition for the entry CCN1CCC(C(=O)Nc2n[nH]c3nnc(-c4cccc(F)c4F)cc23)CC1 : -1.03

The reported inhibition of the molecule COc1ccc(Nc2ncc(-c3ccccc3)o2)cc1OC was 7.2

// field: inhibition; key: O=C1Nc2ccccc2/C1=C1\CCc2cc(O)ccc21 ; value = 10.8

Value of inhibition reported for the molecule N#Cc1ccc2c(-c3ccnc(NC4CC4)n3)c(-c3ccc(F)cc3)nn2c1 is 1.21

COc1ccc2ncn(-c3cc(O[C@H](C)c4ccccc4C(F)(F)F)c(C(N)=O)s3)c2c1 yielded inhibition of 2.67

# inhibition of Cc1c2ccc(N(C)c3ccnc(Nc4cccc(S(N)(=O)=O)c4)n3)cc2nn1C = 38.7

# molecule Cc1cc(O)cc(C)c1/C=C/c1cncc(C(=O)OC(C)(C)C)c1 ; its inhibition = 6.94

Entry under test: CN(C)CCNC(=O)Nc1ccc(N(C)c2ccnc(Nc3ccc(CS(C)(=O)=O)cc3)n2)cc1 . Its inhibition was 15.3

Given item Cc1cc(O)cc(C)c1/C=C/c1cncc(C(N)=O)c1 , the value recorded as its inhibition is 4.48

# inhibition of COc1ccc(-c2nn3ncccc3c2-c2ccnc(Nc3ccc(F)c(F)c3)n2)cc1 = 6.57

Form field inhibition, entry COc1ccccc1-c1cc(/C=C2\C(=O)Nc3ncc(Br)cc32)cc(Br)c1O : 7.94

The molecule listed as CC1=C(C(=O)Nc2ccc3[nH]nc(C)c3c2)C(c2ccc(C(F)(F)F)cc2)CC(=O)N1 (stereo not drawn) has a reported inhibition of 4.15

Data point: c1cnn2ncc(-c3ccnc(NCCCN4CCOCC4)n3)c2c1 ; inhibition = 5.24

inhibition reading for COc1cc(N2CCN(C(C)C)CC2)ccc1Nc1nc(Nc2cccc3ncccc23)c2cc[nH]c2n1 : 7.82

Lab note: measured inhibition of Cn1c(-c2nonc2N)nc2cnccc21 was 2.77

Given item CCn1c(-c2nonc2N)nc2cncc(C(=O)NCCNC)c21 , the value recorded as its inhibition is 3.34

// inhibition value for CC(C)c1ccc(-c2cc(-c3c[nH]nc3-c3ccccn3)ccn2)cc1 : 2.06

meta.source: ChEMBL document CHEMBL1961873
